This collection of values is drawn from patent US20250282866A1.

# assay_system: T1, human TREM2 (human, UniProt Q9NZC2 19-174, limits assumed)
# T1 construct: also called triggering receptor expressed on myeloid cells 2
# T1 sequence: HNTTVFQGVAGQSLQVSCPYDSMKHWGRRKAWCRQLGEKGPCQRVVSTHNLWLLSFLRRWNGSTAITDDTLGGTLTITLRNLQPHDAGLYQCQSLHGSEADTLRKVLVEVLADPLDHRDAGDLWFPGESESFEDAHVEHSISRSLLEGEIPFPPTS
# assay_procedure: 2nd screen 2 nM
Mark 1 for Binding Signal (fold over 6E7 Parental antibody) under 1 fold, -1 if at or over.

INSERT INTO assay_data (binder, assigned_class) VALUES
  ('V29 (antibody, V domains shown) VH: EVQLVQSGAEVKKPGESLKISCKGSGYSFKSYWIAWVRQMPGKGLEWMGIIYPGDSDTRYSPSFQGQVTISADKSISTAYLQWSSLKASDTAMYFCARQRTFYYDSSDYFDYWGQGTLVTVSS VL: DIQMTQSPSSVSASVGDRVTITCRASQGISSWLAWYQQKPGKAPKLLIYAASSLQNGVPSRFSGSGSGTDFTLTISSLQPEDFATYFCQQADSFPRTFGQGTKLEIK', 1),
  ('V65 (antibody, V domains shown) VH: EVQLVQSGAEVKKPGESLKISCKGSGYSFTSYWIAWVRQMPGKGLEWMGIIYPGDSDTRYSPSFQGQVTISADKSISTAYLQWSSLKASDTAMYFCARSRTFYYDSSDYFDYWGQGTLVTVSS VL: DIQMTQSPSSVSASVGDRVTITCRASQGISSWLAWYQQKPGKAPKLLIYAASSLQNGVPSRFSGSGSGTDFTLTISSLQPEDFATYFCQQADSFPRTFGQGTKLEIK', -1),
  ('V85 (antibody, V domains shown) VH: EVQLVQSGAEVKKPGESLKISCKGSGYSFRSYWIAWVRQMPGKGLEWMGTIYPGDSDTRYSPSFQGQVTISADKSISTAYLQWSSLKASDTAMYFCARSRTFYYDSSDYFDYWGQGTLVTVSS VL: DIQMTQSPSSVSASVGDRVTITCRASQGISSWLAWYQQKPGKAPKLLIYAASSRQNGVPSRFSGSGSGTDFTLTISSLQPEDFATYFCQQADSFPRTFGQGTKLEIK', -1),
  ('V49 (antibody, V domains shown) VH: EVQLVQSGAEVKKPGESLKISCKGSGYSFNSYWIAWVRQMPGKGLEWMGTIYPGDSDTRLSPSFQGQVTISADKSISTAYLQWSSLKASDTAMYFCARSRTFYYDSSDYFDYWGQGTLVTVSS VL: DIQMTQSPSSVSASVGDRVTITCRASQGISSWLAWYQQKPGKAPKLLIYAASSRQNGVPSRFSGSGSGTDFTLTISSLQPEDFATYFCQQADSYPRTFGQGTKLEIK', -1),
  ('V50 (antibody, V domains shown) VH: EVQLVQSGAEVKKPGESLKISCKGSGYSFGSYWIAWVRQMPGKGLEWMGVIYPGDSDTRYSPSFQGQVTISADKSISTAYLQWSSLKASDTAMYFCARQRTFYYDSSDYLDYWGQGTLVTVSS VL: DIQMTQSPSSVSASVGDRVTITCRASQGISSWLAWYQQKPGKAPKLLIYAASSRQNGVPSRFSGSGSGTDFTLTISSLQPEDFATYFCQQADSLPRTFGQGTKLEIK', -1);
